Molecular target: BCL6 (Homo sapiens (Human), UniProt P41182)
Test: Immunofluorescence high content imaging of BCL6 degradation in T47D cells
Type: cell-based
Conditions: class symbols A-D, read-out: EC50 (nM)*
Reported values of DC50 for individual entries

Sample records with DC50:
compound: CNC(=O)COc1cc2cc(Nc3nc(N4CCC(OCc5cccc(COCCOCCOCCOc6ccc7c(c6)CN(C6CCC(=O)NC6=O)C7=O)c5)CC4)ncc3Cl)ccc2n(C)c1=O (centres unmarked) [compound 97]
test-target: BCL6 (Homo sapiens (Human), UniProt P41182)
property-name: DC50
assay-result: 50 to 100 nM
--
compound: O=C1CCC(N2C(=O)c3ccc(OCCOCCN4CCC(Oc5cc(Nc6ccc7c(c6)CCC(=O)N7)c(Cl)cc5[N+](=O)[O-])CC4)cc3C2=O)C(=O)N1 (centres unmarked) [compound 74]
test-target: BCL6 (Homo sapiens (Human), UniProt P41182)
property-name: DC50
assay-result: > 100 nM
--
compound: CNC(=O)COc1cc2cc(Nc3nc(N4CCC(OCCNc5cccc6c5C(=O)N(C5CCC(=O)NC5=O)C6=O)CC4)ncc3Cl)ccc2n(C)c1=O (centres unmarked) [compound 80]
test-target: BCL6 (Homo sapiens (Human), UniProt P41182)
property-name: DC50
assay-result: 50 to 100 nM
--
compound: CN1C(=O)CCc2cc(Nc3cc(N4CCC(CN(C)[C@H]5C[C@H](Oc6ccc7c(c6)C(=O)N(C6CCC(=O)NC6=O)C7=O)C5)CC4)c([N+](=O)[O-])cc3Cl)ccc21 (some centres unmarked) [compound 85]
test-target: BCL6 (Homo sapiens (Human), UniProt P41182)
property-name: DC50
assay-result: > 100 nM

[ask] # DC50 lookup, item CC(=O)COc1cc2cc(Nc3nc(C#CC4CCN(c5ccc6c(c5)C(=O)N(C5CCC(=O)NC5=O)C6=O)CC4)ncc3Cl)ccc2n(C)c1=O (centres unmarked) [compound 171]
[reply] 10 to 50 nM
